# Test system: BV-2
# TEST DETAILS: Antiinflammatory activity in mouse BV2 cells assessed as inhibition of LPS-induced nitric oxide production after 24 hrs by Griess assay
# Format: functional, cell-based
# ASSAY CONDITIONS: BV-2, 24 h
MEASURED ENDPOINT: pIC50
Numbers only, as −log10 of the molar value.

Quick batch: pIC50 for everything below.
1. CC1=CCCC(C)(C)C12Cc1c(c(O)cc3oc4c(=O)c5c(O)cc(O)cc5oc4c13)O2 (stereo unspecified)
2. C=C1CCCC(C)(C)[C@H]1Cc1c(O)cc2oc(-c3ccc(O)c(O)c3)cc(=O)c2c1O
3. S=C(S)N1CCCC1 [PYRROLIDINE DITHIOCARBAMATE]

4.74
5.19
4.97

Quick request: pIC50 for each listed item, please.
1. CC1=CCCC(C)(C)C1Cc1c(O)cc(/C=C/c2ccc(O)cc2)cc1O (stereo unspecified)
2. CC1(C)CCC[C@]2(C)Oc3c(O)cc4oc5c(=O)c6c(O)cc(O)cc6oc5c4c3C[C@H]12
3. CC1(C)CC=C[C@]2(C)Oc3c(O)cc4oc5c(=O)c6c(O)cc(O)cc6oc5c4c3C[C@H]12
4. CC1=CCCC(C)(C)C1Cc1c(O)c(O)cc2oc3c(=O)c4c(O)cc(O)cc4oc3c12 (stereo unspecified)
5. CC1(C)CCC[C@@]2(C)Oc3c(c(O)cc4oc(-c5ccc(O)c(O)c5)cc(=O)c34)C[C@H]12
6. C=C1CCCC(C)(C)[C@H]1Cc1c(OC)cc2oc(-c3ccc(O)c(O)c3)c(OC)c(=O)c2c1O
7. C=C1CCCC(C)(C)[C@H]1Cc1c(OC)cc2oc(-c3ccc(O)c(O)c3)cc(=O)c2c1O
8. CC1(C)CCC[C@]2(C)Oc3c(c(O)cc4oc(-c5ccc(O)c(O)c5)cc(=O)c34)C[C@H]12

1. 5.21
2. 5.15
3. 5.11
4. 5.00
5. 4.62
6. 5.17
7. 5.09
8. 4.71
